Biological target: vitamin D receptor (VDR) (Homo sapiens, UniProt P11473)
Sequence (P11473 with tags, fused parts or gaps limits assumed): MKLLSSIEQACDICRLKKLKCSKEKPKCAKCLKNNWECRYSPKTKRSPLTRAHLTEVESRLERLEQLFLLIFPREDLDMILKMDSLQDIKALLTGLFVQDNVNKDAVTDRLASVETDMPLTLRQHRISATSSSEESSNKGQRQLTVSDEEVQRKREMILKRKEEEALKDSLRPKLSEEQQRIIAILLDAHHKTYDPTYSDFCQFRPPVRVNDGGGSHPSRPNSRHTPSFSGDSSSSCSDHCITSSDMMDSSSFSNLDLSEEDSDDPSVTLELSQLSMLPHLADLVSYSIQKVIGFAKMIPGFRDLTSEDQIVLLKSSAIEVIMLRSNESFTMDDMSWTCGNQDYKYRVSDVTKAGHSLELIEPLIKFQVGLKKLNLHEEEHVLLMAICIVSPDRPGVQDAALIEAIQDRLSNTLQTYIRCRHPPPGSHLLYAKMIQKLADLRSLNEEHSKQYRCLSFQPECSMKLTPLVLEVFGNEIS
Experiment: VDR-bla reporter gene assay (agonist and antagonist modes)
outcome_measure: VDR activity

COc1cccc2c1C(=O)c1c(O)c3c(c(O)c1C2=O)C[C@@](O)(C(C)=O)C[C@@H]3O[C@H]1C[C@H](N)[C@H](O)[C@H](C)O1: antagonist response
COc1cccc2c1C(=O)c1c(O)c3c(c(O)c1C2=O)C[C@@](O)(C(=O)CO)C[C@@H]3O[C@H]1C[C@H](N)[C@H](O[C@@H]2CCCCO2)[C@H](C)O1: antagonist response
COc1cccc2c1C(=O)c1c(O)c3c(c(O)c1C2=O)C[C@@](O)(C(=O)CO)C[C@@H]3O[C@H]1C[C@H](N)[C@H](O)[C@H](C)O1: antagonist response
